assay: color of dye in toluene; format: physicochemical
assay-readout: Color in toluene

CCCCCC1CCC(c2nc3cc4c(c(O)c3o2)C(=O)c2c(O)ccc(O)c2C4=O)CC1 (stereo not drawn): Orange
CCCCCC1CCC(c2nc3cc4c(c(NC)c3o2)C(=O)c2ccccc2C4=O)CC1 (stereo not drawn): Orange
CCCCCC1CCC(c2nc3c(N)c4c(c(O)c3o2)C(=O)c2ccccc2C4=O)CC1 (stereo not drawn): Red
CCCCc1ccc(OC(=O)C2CCC(c3nc4c(Cl)c5c(c(O)c4o3)C(=O)c3c(Cl)ccc(O)c3C5=O)CC2)cc1 (stereo not drawn): Orange
CCCCOCCC1CCC(c2nc3c(Br)c4c(c(O)c3o2)C(=O)c2ccccc2C4=O)CC1 (stereo not drawn): Orange
CC(C)(C)CC(C)(C)[C@H]1CC[C@H](c2nc3c(N)c4c(c(O)c3o2)C(=O)c2c(O)cccc2C4=O)CC1: Reddish violet
CCCCCC1CCC(c2nc3cc4c(c(O)c3o2)C(=O)c2ccc(CC(C)C)c(O)c2C4=O)CC1 (stereo not drawn): Orange
CCCCC[C@H]1CC[C@H](c2nc3cc4c(c(O)c3o2)C(=O)c2ccccc2C4=O)CC1: Yellow
CC(CCC1CCC(c2nc3c(O)c4c(c(O)c3o2)C(=O)c2ccccc2C4=O)CC1)CC(C)(C)C (stereo not drawn): Orange
CC(C)(C)c1ccc(C2CCC(c3nc4c(N)c5c(c(O)c4o3)C(=O)c3ccccc3C5=O)CC2)cc1 (stereo not drawn): Red

Data request: What Color in toluene value was documented for this molecule, CCCCCCCC1CCC(c2nc3c(O)c4c(c(N)c3o2)C(=O)c2ccccc2C4=O)CC1 (stereo not drawn) ?
Data returned: Red

Data request: What Color in toluene value was documented for this molecule, CC(C)(C)C1CCC(c2nc3cc4c(c(O)c3s2)C(=O)c2ccccc2C4=O)CC1 (stereo not drawn) ?
Data returned: Yellow

Data request: What Color in toluene value was documented for this molecule, CCCCCCCC1CCC(c2nc3c(N)c4c(c(N)c3o2)C(=O)c2ccc(C(=O)OCCCC)cc2C4=O)CC1 (stereo not drawn) ?
Data returned: Reddish violet

Data request: What Color in toluene value was documented for this molecule, CCCCCCCCCCCCC1CCC(c2nc3c(N)c4c(c(O)c3o2)C(=O)c2ccccc2C4=O)CC1 (stereo not drawn) ?
Data returned: Red

Data request: What Color in toluene value was documented for this molecule, CCCCCCCC1CCC(c2nc3c(N)c4c(c(O)c3o2)C(=O)c2ccc(C(=O)OCCCC)cc2C4=O)CC1 (stereo not drawn) ?
Data returned: Reddish violet

Data request: What Color in toluene value was documented for this molecule, CCCCc1ccc(OC(=O)C2CCC(c3nc4c(N)c5c(c(O)c4o3)C(=O)c3c(N)ccc(O)c3C5=O)CC2)cc1 (stereo not drawn) ?
Data returned: Blue

Data request: What Color in toluene value was documented for this molecule, CCCCCCCCCC1CCC(c2nc3c(N)c4c(c(O)c3o2)C(=O)c2cc(C)ccc2C4=O)CC1 (stereo not drawn) ?
Data returned: Red

Data request: What Color in toluene value was documented for this molecule, CCCCCC1CCC(c2nc3cc4c(c(O)c3s2)C(=O)c2ccccc2C4=O)CC1 (stereo not drawn) ?
Data returned: Yellow
